tested on: MCF7 cells; experiment: In vitro cell proliferation assays (Examples 902 and 903), MCF7; type: cell-based; details: Homo sapiens, MCF7, Table 1a, read-out: ER-alpha MCF7 HCS (EC50)
List of EC50 values.
readoutName: EC50 (nM)

C[C@H]1Cc2c([nH]c3c(F)cccc23)[C@H](c2c(F)cc([C@@H](O)C3CN(CCCF)C3)cc2F)N1CC(F)(F)CO (single isomer, unassigned)    9.7
C[C@@H]1Cc2c([nH]c3cccc(F)c23)[C@@H](c2c(F)cc([C@@H](O)C3CN(CCCF)C3)cc2F)N1CC(F)(F)CO    0.028
C[C@@H]1Cc2c([nH]c3cccc(F)c23)[C@@H](c2c(F)cc([C@H](O)C3CN(CCCF)C3)cc2F)N1CC(F)(F)CO    0.035

----------
tested on: MCF7 cells; experiment: In vitro cell proliferation assays (Examples 902 and 903), MCF7; type: cell-based; settings: Homo sapiens, MCF7, Table 1a, read-out: ER-alpha MCF7 HCS (EC50)
readoutName: EC50 (nM)

C[C@@H]1Cc2c([nH]c3ccccc23)[C@@H](c2c(F)cc([C@H](F)C3CN(CCCF)C3)cc2F)N1CC(C)(C)F [Compound 103]    0.12
C[C@@H]1Cc2c([nH]c3ccccc23)[C@@H](c2ccc([C@H](F)C3CN(CCCF)C3)cc2)N1CC(F)(F)CO [Compound 123]    0.041
C[C@@H]1Cc2c([nH]c3ccccc23)[C@@H](c2ccc([C@@H](F)C3CN(CCCF)C3)cc2F)N1CC(F)(F)CO [Compound 126]    0.021

----------
Listing of recorded ER-alpha MCF7 HCS (S inf) by entry.
Target: estrogen receptor alpha (ESR1) (Homo sapiens, UniProt P03372)
Construct: endogenous in cells; host or cells: MCF7 breast cancer cells
Sequence (P03372 1-595): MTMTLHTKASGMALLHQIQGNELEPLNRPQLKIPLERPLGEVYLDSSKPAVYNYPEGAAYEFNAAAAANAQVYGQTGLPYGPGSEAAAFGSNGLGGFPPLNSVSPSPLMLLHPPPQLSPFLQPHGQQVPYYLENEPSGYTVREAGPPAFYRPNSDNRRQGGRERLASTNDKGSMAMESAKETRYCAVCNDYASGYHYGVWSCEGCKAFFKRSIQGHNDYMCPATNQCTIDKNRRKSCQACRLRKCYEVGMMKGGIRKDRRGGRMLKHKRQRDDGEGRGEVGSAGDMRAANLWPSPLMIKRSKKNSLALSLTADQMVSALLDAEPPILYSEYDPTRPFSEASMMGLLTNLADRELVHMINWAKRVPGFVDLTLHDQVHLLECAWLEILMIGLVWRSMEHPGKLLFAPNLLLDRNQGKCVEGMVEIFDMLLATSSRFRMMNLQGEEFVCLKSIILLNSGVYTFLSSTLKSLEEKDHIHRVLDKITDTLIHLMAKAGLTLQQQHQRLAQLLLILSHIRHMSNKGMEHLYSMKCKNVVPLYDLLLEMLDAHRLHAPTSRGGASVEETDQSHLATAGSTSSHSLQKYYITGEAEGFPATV
Assay: Breast Cancer Cell ERa High Content Fluorescence Imaging Degradation Assay (Example 901)
Assay type: cell-based
Conditions: Table 1b; MCF7 breast cancer cells, 4 hours; plateau of the maximal effect
readoutName: ER-alpha MCF7 HCS (S inf) (%)

C[C@@H]1Cc2c([nH]c3ccccc23)[C@@H](c2c(F)cc([C@@H](F)C3CN(CCCF)C3)cc2F)N1C[C@H](F)CO    −99
C[C@@H]1Cc2c([nH]c3ccccc23)[C@@H](c2ccc([C@H](O)C3CN(CCCF)C3)c(F)c2)N1CC(F)(F)CO    −93
CO[C@H](c1cc(F)c([C@@H]2c3[nH]c4ccc(F)cc4c3C[C@@H](C)N2CC(F)(F)CO)c(F)c1)C1CN(CCCF)C1    −92
C[C@@H]1Cc2c([nH]c3ccccc23)[C@@H](c2c(F)cc([C@H](O)C3CN(CCCF)C3)cc2F)N1C[C@@H](F)CF    −97
CO[C@@H](c1cc(F)c([C@@H]2c3[nH]c4ccc(F)cc4c3C[C@@H](C)N2CC(F)(F)CO)c(F)c1)C1CN(CCCF)C1    −85
C[C@@H]1Cc2c([nH]c3ccccc23)[C@@H](c2ccc([C@@H](O)C3CN(CCCF)C3)c(F)c2F)N1CC(F)(F)CO    −97
C[C@@H]1Cc2c([nH]c3ccccc23)[C@@H](c2c(F)cc([C@H](F)C3CN(CCCF)C3)cc2F)N1C[C@@H](F)CO (single isomer, unassigned)    −102
C[C@@H]1Cc2c([nH]c3ccccc23)[C@@H](c2ccc([C@H](O)C3CN(CCCF)C3)c(F)c2F)N1CC(F)(F)CO    −100
C[C@@H]1Cc2c([nH]c3ccccc23)[C@@H](c2c(F)cc([C@H](O)C3CN(CCCF)C3)cc2F)N1C[C@H](F)CF    −102
CO[C@@H](c1cc(F)c([C@@H]2c3[nH]c4ccccc4c3C[C@@H](C)N2CC(F)(F)CO)c(F)c1)C1CN(CCCF)C1    −89

----------
target: estrogen receptor alpha (ESR1) (Homo sapiens); construct: endogenous in cells; host or cells: MCF7 breast cancer cells; assay: Breast Cancer Cell ERa High Content Fluorescence Imaging Degradation Assay (Example 901); type: cell-based; conditions: Table 1a; MCF7 breast cancer cells, 4 hours; plateau of the maximal effect; DMSO and Fulvestrant define 0% and 100% changes in ESR1
readoutName: ER-alpha MCF7 HCS (S inf)

C[C@@H]1Cc2c([nH]c3ccccc23)[C@@H](c2ccc([C@H](F)C3CN(CCCF)C3)cc2)N1CC(F)(F)CO    −98.38%
C[C@@H]1Cc2c([nH]c3ccccc23)[C@@H](c2ccc([C@@H](F)C3CN(CCCF)C3)cc2)N1CC(F)(F)CO    −96.62%
C[C@@H]1Cc2c([nH]c3ccccc23)[C@@H](c2c(F)cc([C@H](F)C3CN(CCCF)C3)cc2F)N1CC(C)(C)F    −94.25%
C[C@@H]1Cc2c([nH]c3ccccc23)[C@@H](c2ccc([C@@H](O)C3CN(CCCF)C3)cc2F)N1CC(F)(F)CO    −96.45%
C[C@@H]1Cc2c([nH]c3c(F)cccc23)[C@@H](c2c(F)cc([C@H](O)C3CN(CCCF)C3)cc2F)N1CC(F)(F)CO (single isomer, unassigned)    −95.88%
C[C@@H]1Cc2c([nH]c3ccccc23)[C@@H](c2c(F)cc([C@@H](O)C3CN(CCCF)C3)cc2F)N1CC(F)F (single isomer, unassigned)    −98.05%

----------
Reported EC50 values follow for various compounds
test system: MCF7 cells; assay: In vitro cell proliferation assays (Examples 902 and 903), MCF7; type: cell-based; conditions: Homo sapiens, MCF7, Table 1a, read-out: ER-alpha MCF7 HCS (EC50)
readoutName: EC50

C[C@@H]1Cc2c([nH]c3ccccc23)[C@@H](c2c(F)cc(C(O)C3CN(CCCF)C3)cc2F)N1C[C@](C)(F)CO (stereo partly drawn)    0.056 nM
C[C@@H]1Cc2c([nH]c3ccccc23)[C@@H](c2ccc([C@@H](O)C3CN(CCCF)C3)cc2)N1CC(F)(F)CO    0.088 nM
C[C@@H]1Cc2c([nH]c3ccccc23)[C@@H](c2c(F)cc(C(O)C3CN(CCCF)C3)cc2F)N1CC(F)(F)CO (stereo partly drawn)    0.035 nM
C[C@@H]1Cc2c([nH]c3ccccc23)[C@@H](c2c(F)cc([C@@H](O)C3CN(CCCF)C3)cc2F)N1CC(F)F (single isomer, unassigned)    0.035 nM
C[C@@H]1Cc2c([nH]c3ccccc23)[C@@H](c2c(F)cc([C@H](O)C3CN(CCCF)C3)cc2F)N1CC(F)(F)CO (single isomer, unassigned)    0.066 nM
C[C@@H]1Cc2c([nH]c3ccccc23)[C@@H](c2c(F)cc([C@H](F)C3CN(CCCF)C3)cc2F)N1CC(F)(F)CO (single isomer, unassigned)    0.021 nM

----------
tested on: MCF7 cells; assay: In vitro cell proliferation assays (Examples 902 and 903), MCF7; assay type: cell-based; conditions: Homo sapiens, MCF7, Table 1a, read-out: ER-alpha MCF7 HCS (EC50)
pEC50: −log10 of the molar value.
Threshold check on pEC50: at or above 10 gives yes, strictly below gives no.

C[C@@H]1Cc2c([nH]c3ccccc23)[C@@H](c2c(F)cc(C(F)(F)C3CN(CCCF)C3)cc2F)N1CC(C)(C)F [Compound 146]    no
C[C@@H]1Cc2c([nH]c3ccccc23)[C@@H](c2c(F)cc([C@@H](O)C3CN(CCCF)C3)cc2F)N1C[C@@H](F)CO (single isomer, unassigned) [Compound 138]    no
C[C@@H]1Cc2c([nH]c3ccccc23)[C@@H](c2c(F)cc([C@@H](F)C3CN(CCCF)C3)cc2F)N1CC(F)(F)CO (single isomer, unassigned) [Compound 104]    yes
C[C@@H]1Cc2c([nH]c3cc(F)ccc23)[C@@H](c2c(F)cc([C@@H](O)C3CN(CCCF)C3)cc2F)N1CC(F)(F)CO [Compound 141]    no
C[C@@H]1Cc2c([nH]c3ccc(F)cc23)[C@@H](c2c(F)cc([C@H](O)C3CN(CCCF)C3)cc2F)N1CC(F)(F)CO (single isomer, unassigned) [Compound 114]    yes
C[C@@H]1Cc2c([nH]c3ccccc23)[C@@H](c2c(F)cc(C(O)C3CN(CCCF)C3)cc2F)N1CC(F)(F)F (some centres unmarked) [Compound 109]    no
C[C@@H]1Cc2c([nH]c3ccccc23)[C@@H](c2ccc([C@@H](F)C3CN(CCCF)C3)cc2)N1CC(F)(F)CO [Compound 124]    yes
